Provenance of the data: ChEMBL document CHEMBL2046386

assay: Volume of distribution at steady state in mouse at 2.5 mg/kg, iv; type: ADME, organism-based; design: dose 2.5 mg/kg, route intravenous; details: in vivo, read-out: Vdss
# Vd annotations
The number alone won't do; follow it with the unit.

- cpd smiles: "CCCS(=O)(=O)Nc1ccc(F)c(NC(=O)c2cccc3c(N)ncnc23)c1F"
  meas value: "0.4 L/kg"
- cpd smiles: "Nc1ncnc2c(C(=O)Nc3c(Cl)ccc(NS(=O)(=O)CCCF)c3F)csc12"
  meas value: "0.12 L/kg"

// next item, Vd requested
Vd reported for this compound CCCS(=O)(=O)Nc1ccc(F)c(NC(=O)c2csc3c(N)ncnc23)c1F : 0.2 L/kg
